Origin of measurements: ChEMBL document CHEMBL1201862

The following compounds are shown together with reported GI50 values.
- Test system: RPMI-8226
- assayMethodText: NCI tumour cell line growth inhibition, 48 h
Calls of active or inactive are those of the source. Rule as the data show it: active = GI50 up to about 1.1 µM and inactive = higher.
measurementLabel: GI50

>>> result("CCCn1c(=O)c2ccccc2[n+]2c(-c3ccc([N+](=O)[O-])cc3)csc12")
"18 µM (inactive)"
>>> result("COC(=O)c1ccc(/N=N/N(C)COc2ccc(Br)cc2)cc1")
"24.5 µM (inactive)"
>>> result("CC(=O)NC1C(OCc2ccccc2)OC(CO)C(O)C1OCC(=O)N[C@@H](C)C(=O)N[C@H](CCC(=O)NCCNCCNc1c2ccccc2nc2cccc([N+](=O)[O-])c12)C(N)=O (some centres not stated)")
"24.4 µM (inactive)"
>>> result("CN(C)CC1CCC(=C2CCCC2)C1=O (configuration not stated)")
"0.859 µM (active)"
>>> result("CC(=O)C(C(=N)C#N)C(=O)Nc1ccccc1 (configuration not stated)")
"> 100 µM (inactive)"
>>> result("Nc1ccc(S(=O)(=O)C23CC4CC(CC(C4)C2)C3)cc1")
"55.3 µM (inactive)"
>>> result("COC(=O)C1=C(OC(=O)/C(=C/c2ccccc2)c2ccc(Cl)cc2Cl)C(C(=O)OC)[C@@]2(O)[C@@H](C(=O)OC)[C@H](C)C[C@@H]1[C@@H]2C(=O)OC (some centres not stated)")
"> 100 µM (inactive)"
>>> result("CC(C)[Si](Oc1ccc(CC2N(C(=O)c3ccc([N+](=O)[O-])cc3)C(CCc3ccccc3)CC2(C)C=O)cc1)(C(C)C)C(C)C (configuration not stated)")
"> 100 µM (inactive)"
>>> result("CC(C)(C)OC(=O)C1=C(C(=O)OC(C)(C)C)SC2(S1)C(C(=O)OC(C)(C)C)=C(C(=O)OC(C)(C)C)Sc1c2ssc1=O")
"48.1 µM (inactive)"
>>> result("COc1ccc(NCC#N)cc1")
"> 100 µM (inactive)"
>>> result("OCCCNc1[nH]cnc2nncc1-2")
"> 100 µM (inactive)"
>>> result("C[C@]12CCC(=O)CC1CCCC2=O (some centres not stated)")
"> 100 µM (inactive)"
